Test system: Saccharomyces cerevisiae;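 further: PSI is a weighted mean of sequencing reads over stability bins, variants kept only with over 10 reads, mCherry proximal and sfGFP distal, peptide attached via GGGS linker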
Test: protein stability index of tFT-peptide fusion (C-terminal peptide) (PSI (0-1 scale)); higher = more stable (slower turnover)
Conditions: genetic background: wild type; temperature: 30 C
Would you mind telling me the reported protein stability index of each entry?
Reply with the value as a number alone.

Entry KALSSSYFGTRL : reported protein stability index = ? 0.735

Form field: reported protein stability index of GWVREAVGFRGG 0.687

Find the recorded protein stability index belonging to FAFLPYKGISSS and report it. 0.682

# input sequence: VARGCNSVYGYA ; wanted: its protein stability index 0.653

Please report the recorded protein stability index for HSPILQPSLPHP . 0.71

Reported protein stability index, sequence PHILPTSDSPFP : ____ 0.785

Value lookup for protein stability index; key = CNTPGLSHELLH 0.786

Which value of protein stability index has been reported for RGWKDQYIDADR in the records? 0.689

Any idea what protein stability index was measured for GQGACWLCVGGR ? 0.685

// protein stability index lookup, key: PRPPPPCPPPSL 0.71

Look up protein stability index: GLFVGCWVFLVL 0.387

Please look up its protein stability index: THLPLPPPPPLL 0.655

Suppose we examine the sequence CYTGMIRSTPLS ; what protein stability index value has been reported? 0.702

Entry GGGTGALGTVRW has what protein stability index? 0.765

Form field: reported protein stability index of RLHAILKRSGLE 0.722

What protein stability index value was documented for this sequence, PPPSSSSPPPPR ? 0.704

What value of measured protein stability index is listed for YCLLCSFVGPPA ? 0.731

What measured protein stability index goes with PPPIPPFRLSRS ? 0.69

So what does the record say about protein stability index for PRLPTSPVPHPP ? 0.647

Entry under review: GNAGGFRSLISW . Reported protein stability index? 0.663

// protein stability index lookup, key: RRRKGTKNMQSK 0.727

// returns reported protein stability index for input PPPRLVPSPPVP 0.7

Would you mind telling me what protein stability index value was observed for GGVVAACRGGIG ? 0.346

Data request, read-out protein stability index, for VQLGRRGQAVEP 0.7

Which protein stability index is reported for this sequence? DRGCRRRCVGGG 0.683

If you can, please state the reported protein stability index value of WRLRIAAVVRSS . 0.281

Can you look up the measured protein stability index of STRGGLCFLRWV for me? 0.554

Entry GLPTFLTDSSFW : reported protein stability index = ? 0.725

What value of measured protein stability index is listed for LVNVIPSHERAT ? 0.656

Look up protein stability index: LGGTRRVGLALV 0.685

For the sequence CFCDDRPSLRRV , what protein stability index is on record? 0.729

Which protein stability index value is on record for YLVSFVAFLRLF ? 0.143

Which protein stability index value belongs to TTNGGPGNGAQN ? 0.665

Using the record for FYFRSSFFTICF , report its protein stability index. 0.398

What measured protein stability index goes with MQLWECKQSLCD ? 0.696

Suppose we examine the sequence FRLQSLFPYVVK ; what protein stability index value has been reported? 0.604

Given the sequence KLIVPCSPIRLS , what is its reported protein stability index? 0.693

// returns reported protein stability index for input GFGSGVVAGSSL 0.682

Report protein stability index for PPPPHFLVPLSP please. 0.695

Dear colleague, I am looking for the recorded protein stability index of the following sequence: RRNESHAGGRGP 0.778

Fill in: protein stability index of SPPHTGMLRLLT is ___ 0.7

// query protein stability index value for entry FRLGIKFYTLAV 0.514

Look at this sequence and give its reported protein stability index. VPFPFLPPSPSL 0.87

protein stability index for FMDLVRSVPTGC ? 0.706

Fill blank: measured protein stability index of the sequence LPTLPPPTPYAL is ____. 0.652

Return reported protein stability index; argument: RGASDYARMSAF 0.705

Any idea what its protein stability index is? The sequence is RPLLVPVSSTPP 0.716

Suppose we examine the sequence PPPSDPLPPSVR ; what protein stability index value has been reported? 0.704

# query: protein stability index of entry FCGLWGVGGVAE 0.704

Given the entry IKVNAVAWLFGS , report its measured protein stability index. 0.582

# input sequence: NTRIKGERNILH ; wanted: its protein stability index 0.702

Fill blank: measured protein stability index of the sequence DKGTGYIVKRIT is ____. 0.687

If you can, please state the reported protein stability index value of WSLGPDVCGGVV . 0.708

Which protein stability index is reported for this sequence? KIKKKKKNKTNR 0.676

# query: protein stability index of entry WDGAGGGFGLVV 0.726

// lookup protein stability index for TPPLPPSLSPTH 0.708

Give the measured protein stability index of PPCPFPTLPVTH . 0.73

Dear colleague, I am looking for the recorded protein stability index of the following sequence: IRNGYVGNYKGN 0.744

For the sequence PVHFLPTPRAPL , what protein stability index is on record? 0.686

Query: protein stability index; subject: CSRTRLHCFTAS 0.712

Report protein stability index for GRGLSSLCRRFS please. 0.691

Look up protein stability index: PPPPFLLPPLLD 0.707

Reported protein stability index for RRYWVLSTVPVL : what is it? 0.615

Can you look up the measured protein stability index of PFPRSSPPPPPD for me? 0.652

Look up protein stability index: QTVPGKNLDGDL 0.714

# protein stability index lookup, item LLVSVVFVSRFF 0.387

Entry FFWGRFCLGLWS has what protein stability index? 0.568

GET /values?readout=protein stability index&item= VIMGLKYYRKCE 0.658

What protein stability index value was documented for this sequence, GLARSICRNYGL ? 0.706

Field request: protein stability index | item: SSLGNSFYLSPH 0.683

Please report the recorded protein stability index for RIIDRVSRLIML . 0.543

State the recorded protein stability index for this entry: LSLSPRLPRLVA 0.283

If you can, please state the reported protein stability index value of ALPRPPSPFSPL . 0.666

Record request: protein stability index value, item LFLELSSCVGVF 0.62

Field request: protein stability index | item: GVRVRAGYDVRA 0.662

What value of protein stability index has been reported for the following sequence? CVPLPPVLPRSC 0.661

Give its protein stability index value. Item: RLTRRSCLFSIT 0.785

What protein stability index value was documented for this sequence, DLGQVLSEASAS ? 0.742

Please look up its protein stability index: TALGLILSSFVY 0.595

Name the reported protein stability index value associated with the sequence GRYLGARRGRAF 0.68

Quick one: protein stability index of QFRCAIFRLSFV ? 0.613

Query (sequence): SSVCYFGLLFIV ; field requested: protein stability index 0.184

Source of measurements: the supplement of paper PMC10724198
